tested on: SF-268; assay: NCI tumour cell line growth inhibition, 48 h
Activity calls are given as the source filed them. Cut-off read from the data, not from the text of the source: active = GI50 up to about 1.1 µM and inactive = higher.
RECORDED_ENDPOINT: GI50

Incoming: Query the reported GI50 for SF-268; item: CC(=O)O[C@H]1C[C@H]2[C@@H]([C@H](OC(C)=O)C[C@@H]3CC4(CC[C@@]32C)OOC2(CCCCC2)OO4)[C@@H]2CC[C@H]([C@H](C)CCC(N)=O)[C@@]12C
Outgoing: 1.66 µM (inactive)

Incoming: Record: CCOC(=O)C(=NN(C)c1ncccc1N)C(=O)OCC
Outgoing: > 100 µM (inactive)

Incoming: Record: O=S(=O)(/N=c1/[nH]c2ccccc2n1S(=O)(=O)c1ccccc1)c1ccccc1
Outgoing: 42.4 µM (inactive)

Incoming: Record: C[C@]12CC[C@H](O)CC1=CC[C@@H]1C2CC[C@]2(C)C(=O)N(N)C(=O)CC12 (stereo not given in full)
Outgoing: > 100 µM (inactive)

Incoming: Record: COc1ccc(/C(Cl)=C(\C=O)c2ccc(Br)cc2)cc1OC
Outgoing: 23.2 µM (inactive)

* * *

test system: UO-31; assay: NCI tumour cell line growth inhibition, 48 h
The source made the active and inactive calls. Rule as the data show it: active = GI50 up to about 1.1 µM and inactive = higher.
Quick reference for GI50 among some compounds

Observe how each entry below is paired with its result.
COMPOUND: CC(C)N(C(=O)C12C3C4C1C1C4(C#N)C3C12C(=O)O)C(C)C (stereo not drawn)
RECORDED_ENDPOINT: GI50
EXPERIMENTAL_RESULT: > 100 µM (inactive)
//
COMPOUND: Cn1c2c(c3ccccc31)CCN1C(=O)C3SC21C1C(=O)N(c2ccccc2)C(=O)C31 (stereo not drawn)
RECORDED_ENDPOINT: GI50
EXPERIMENTAL_RESULT: > 100 µM (inactive)
//
COMPOUND: CC(C)C(/C=C/c1ccc(Cl)cc1)=N\NC(=O)N/N=C(/C=C/c1ccc(Cl)cc1)C(C)C
RECORDED_ENDPOINT: GI50
EXPERIMENTAL_RESULT: 40.9 µM (inactive)
//
COMPOUND: COC(=O)C(NC(=O)c1ccccc1)C(c1ccc(Cl)cc1)P(=O)(OC)OC (stereo not drawn)
RECORDED_ENDPOINT: GI50
EXPERIMENTAL_RESULT: > 100 µM (inactive)
//
COMPOUND: O=C1C2C(c3ccccc3)NC(c3ccccc3)C1C(c1ccccc1)NC2c1ccccc1 (stereo not drawn)
RECORDED_ENDPOINT: GI50
EXPERIMENTAL_RESULT: > 100 µM (inactive)
//
COMPOUND: CC(C)CC1[C@@H](OCc2ccccc2)COS(=O)N1Cc1ccccc1 (stereo partly drawn)
RECORDED_ENDPOINT: GI50
EXPERIMENTAL_RESULT: 34.6 µM (inactive)
//
COMPOUND: C=CCNC(=S)N/C=C(\C(=O)OCC)C(=O)C(=O)OCC
RECORDED_ENDPOINT: GI50
EXPERIMENTAL_RESULT: > 100 µM (inactive)

Proceeding to the next compound to report its GI50.
Incoming: Data request, read-out GI50, for CNC(=O)CC1NC(=O)c2csc(n2)-c2ccc(-c3nc(C4=NC(C(=O)N5CCCC5C(N)=O)CO4)cs3)nc2-c2csc(n2)-c2csc(n2)C(C(C)C)NC(=O)CNC(=O)c2csc(n2)C(C(C)C)NC(=O)c2nc1sc2C (stereo not drawn)
Outgoing: 2.18 µM (inactive)
